- Target Or System: arginine vasopressin V2 receptor (Oryctolagus cuniculus, UniProt G1TA00)
- Sequence (G1TA00 78-446): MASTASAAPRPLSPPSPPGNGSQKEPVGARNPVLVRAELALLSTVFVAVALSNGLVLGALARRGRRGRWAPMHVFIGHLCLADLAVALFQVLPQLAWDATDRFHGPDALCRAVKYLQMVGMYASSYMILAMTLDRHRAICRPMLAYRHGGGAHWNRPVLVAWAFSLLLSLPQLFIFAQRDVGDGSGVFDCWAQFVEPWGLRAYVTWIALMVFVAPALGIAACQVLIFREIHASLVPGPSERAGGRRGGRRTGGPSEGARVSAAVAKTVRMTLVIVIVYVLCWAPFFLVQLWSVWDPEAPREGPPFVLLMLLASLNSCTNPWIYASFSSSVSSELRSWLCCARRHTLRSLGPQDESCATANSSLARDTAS
- Test: V2 receptor binding assay ([3H]-Arg-vasopressin, rabbit renal medulla membrane)
- Experimental Setup: rabbit renal medulla membrane, [3H]-Arg-vasopressin 2 nM
# if value of Binding activity on arginine vasopressin V2 receptor (pKi) reaches 8, tag yes (1); if it stays below, tag no (0)

Examples with answers:
NC(=O)/C=C1/c2ccccc2N(C(=O)c2ccc(NC(=O)c3ccccc3-c3ccccc3)cc2)CCC1(F)F	yes (1)
O=C(/C=C1/c2ccccc2N(C(=O)c2ccc(NC(=O)c3ccccc3-c3ccccc3)cc2)CCC1(F)F)NCCO	yes (1)
CCc1nccn1-c1ccccc1C(=O)Nc1ccc(C(=O)N2CCC(F)(F)/C(=C\C(N)=O)c3ccccc32)cc1	no (0)
Cc1ccc(-c2ccccc2C(=O)Nc2ccc(C(=O)N3CCC(F)(F)/C(=C\C#N)c4ccccc43)cc2)cc1	yes (1)
CN1CCCN(C(=O)/C=C2/c3ccccc3N(C(=O)c3ccc(NC(=O)c4ccccc4-c4ccccc4)cc3)CCC2(F)F)CC1.Cl	yes (1)

Kindly review the next molecule as well.
Entry CCc1nccn1-c1ccccc1C(=O)Nc1ccc(C(=O)N2CCC(F)(F)/C(=C\C(=O)NC)c3ccccc32)cc1 : is its Binding activity on arginine vasopressin V2 receptor (pKi) no less than 8? no (0)
